- test.target: UniProt P23975
- Sequence (P23975 whole entry): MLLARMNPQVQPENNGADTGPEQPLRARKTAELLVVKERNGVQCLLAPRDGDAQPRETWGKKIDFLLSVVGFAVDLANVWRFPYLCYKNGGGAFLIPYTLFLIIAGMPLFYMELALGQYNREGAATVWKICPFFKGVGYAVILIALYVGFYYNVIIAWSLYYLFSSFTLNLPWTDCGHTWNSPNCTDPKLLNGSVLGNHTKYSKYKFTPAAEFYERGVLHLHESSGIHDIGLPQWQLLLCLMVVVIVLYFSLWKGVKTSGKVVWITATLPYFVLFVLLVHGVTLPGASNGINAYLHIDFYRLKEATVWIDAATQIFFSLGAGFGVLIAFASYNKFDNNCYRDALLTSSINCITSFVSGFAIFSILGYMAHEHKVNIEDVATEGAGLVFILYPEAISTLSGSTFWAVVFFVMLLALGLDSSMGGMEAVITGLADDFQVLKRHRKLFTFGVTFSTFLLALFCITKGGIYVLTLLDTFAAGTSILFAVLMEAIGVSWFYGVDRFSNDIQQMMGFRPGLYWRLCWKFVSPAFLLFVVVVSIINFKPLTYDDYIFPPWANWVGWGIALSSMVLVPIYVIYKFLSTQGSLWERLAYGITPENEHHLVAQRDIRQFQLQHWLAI
- assay.explanation: fluorescent substrate uptake inhibition in HEK293 cells stably expressing NET
- Format: cell-based
observed.property: IC50 (µM)
Give the value, in units of µM, as a plain number.

Lab book: IC50 of [O-][S@@+](Cc1cncs1)[C@@H](c1ccccc1)c1cccc(Br)c1 [(S, S)-CE-158] noted as 12
